tested on: 817829-284-R-J1-PDC complex spheroids, viability; experiment: Anticancer human tumor 817829-284-R-J1-PDC patient-derived colon adenocarcinoma cell line growth inhibition [CLK]; conditions: second compound 1 µM; first compound 1 µM; active = viability on the fitted dose curve at most 10% of control; inactive = the rest;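 also: spheroids exposed to the agents for seven days before readout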
Could you please pick one outcome from this set? active, inactive

**Query** So what was the verdict on C=C(F)C(=O)N1CCN(c2nc(OCC3CCCN3C)nc3c2CCN(c2cccc4cccc(Cl)c24)C3)CC1CC#N (stereo not given) + CNC(=O)c1ccc(Nc2nc(OC3CCCC3)c3c(-c4ccc5nc(C)oc5c4)c[nH]c3n2)c(OC)c1 in this test?
**Result** inactive

**Query** So what was the verdict on CC(CO)NC(=O)c1cc(-c2ccc(Cl)cc2)nn(-c2cnn(C)c2)c1=O (stereo not given) + CN1CCN(c2cc(C(=O)Nc3cc4cc(-c5cnn(C)c5)ccc4cn3)ccn2)CC1 in this test?
**Result** active

**Query** So what was the verdict on C=CC(=O)N1CCN(c2nc(=O)n(-c3c(C)ccnc3C(C)C)c3nc(-c4c(O)cccc4F)c(F)cc23)C(C)C1 (stereo not given) + CNC(=O)c1ccc(Nc2nc(OC3CCCC3)c3c(-c4ccc5nc(C)oc5c4)c[nH]c3n2)c(OC)c1 in this test?
**Result** inactive

**Query** So what was the verdict on COC1C=CCC(C)C(C)S(=O)(=O)NC(=O)c2ccc3c(c2)N(CC2CCC21)CC1(CCCc2cc(Cl)ccc21)CO3 (stereo not given) + CNC(=O)c1ccc(Nc2nc(OC3CCCC3)c3c(-c4ccc5nc(C)oc5c4)c[nH]c3n2)c(OC)c1 in this test?
**Result** inactive

**Query** So what was the verdict on C#Cc1c(F)ccc2cc(O)cc(-c3ncc4c(N5CC6CCC(C5)N6)nc(OCC56CCCN5CC(F)C6)nc4c3F)c12 (stereo not given) + CN1CCN(c2cc(C(=O)Nc3cc4cc(-c5cnn(C)c5)ccc4cn3)ccn2)CC1 in this test?
**Result** active

Provenance of the data: PubChem BioAssay AID2060599
